system: elastase; assay: Elastase release from cytochalasin A/f-MLP-stimulated neutrophils (SAAVNA substrate); format: cell-based, human; settings: 5 μM, % of stimulated control
Examples of molecules with documented Elastase release Mean(%) follow.

Answered cases to consult:
molecule	result
O=C(OC1COC(=O)c2cc(O)c(O)c(O)c2-c2c(cc(O)c(O)c2O)C(=O)OC1C1OC(=O)c2cc(O)c(O)c(O)c2-c2c(O)c(O)c(O)c3c2C(=O)OC1C3O)c1cc(O)c(O)c(O)c1Oc1cc2c(c(O)c1O)-c1c(cc(O)c(O)c1O)C(=O)OCC1OC(=O)c3cc(O)c(O)c(O)c3-c3c(O)c(O)c(O)c4c3C(=O)OC(C1OC2=O)C1OC(=O)c2c-4c(O)c(O)c(O)c2C1O (stereo not drawn) [SB, salicarinin B]	65,03%
O=c1c(O)c(-c2ccc(O)c(O)c2)oc2cc(O)cc(O)c12 [Q, quercetin, reference compound]	78,40%
O=C(OC1COC(=O)c2cc(O)c(O)c(O)c2-c2c(cc(O)c(O)c2O)C(=O)OC1C1OC(=O)c2cc(O)c(O)c(O)c2-c2c(O)c(O)c(O)c3c2C(=O)OC1C3O)c1cc(O)c(O)c(O)c1Oc1cc2c(c(O)c1O)-c1c(cc(O)c(O)c1O)C(=O)OCC1OC(=O)c3cc(O)c(O)c(O)c3-c3c(O)c(O)c(O)c4c3C(=O)OC(C1OC2=O)C1OC(=O)c2c-4c(O)c(O)c(O)c2C1O (stereo not drawn) [SC, salicarinin C]	80,91%

The value of Elastase release Mean(%) recorded for O=C1OC[C@H]2OC(=O)c3cc(O)c(O)c(O)c3-c3c(O)c(O)c(O)c4c3C(=O)O[C@H]([C@H]3OC(=O)c5c-4c(O)c(O)c(O)c5[C@H]3O)[C@@H]2OC(=O)c2cc(O)c(O)c(O)c2-c2c1cc(O)c(O)c2O when tested on elastase reads 102,40%

The value of Elastase release Mean(%) recorded for O=C1OCC2OC(=O)c3cc(O)c(O)c(O)c3-c3c(O)c(O)c(O)c4c3C(=O)OC(C2OC(=O)c2cc(O)c(O)c(O)c2-c2c1cc(O)c(O)c2O)C1OC(=O)c2c-4c(O)c(O)c(O)c2C1O (stereo not drawn) when tested on elastase reads 104,61%

The value of Elastase release Mean(%) recorded for O=C(OC1COC(=O)c2cc(O)c(O)c(O)c2-c2c(cc(O)c(O)c2O)C(=O)OC1C1OC(=O)c2cc(O)c(O)c(O)c2-c2c(O)c(O)c(O)c3c2C(=O)OC1C3O)c1cc(O)c(O)c(O)c1Oc1cc2c(c(O)c1O)-c1c(cc(O)c(O)c1O)C(=O)OCC1OC(=O)c3cc(O)c(O)c(O)c3-c3c(O)c(O)c(O)c4c3C(=O)OC(C1OC2=O)C1OC(=O)c2c-4c(O)c(O)c(O)c2C1O (stereo not drawn) [SA, salicarinin A] when tested on elastase reads 63,45%

---

target: bovine testis hyaluronidase (Bos taurus, UniProt Q2YDK3); construct: purchased Sigma–Aldrich GmbH (Steinheim, Germany); host or cells: bovine testis; experiment: Hyaluronidase activity, USP turbidimetric method modified; format: biochemical; settings: 2 μM; % of 100% active enzyme control
Sequence (Q2YDK3 36-553): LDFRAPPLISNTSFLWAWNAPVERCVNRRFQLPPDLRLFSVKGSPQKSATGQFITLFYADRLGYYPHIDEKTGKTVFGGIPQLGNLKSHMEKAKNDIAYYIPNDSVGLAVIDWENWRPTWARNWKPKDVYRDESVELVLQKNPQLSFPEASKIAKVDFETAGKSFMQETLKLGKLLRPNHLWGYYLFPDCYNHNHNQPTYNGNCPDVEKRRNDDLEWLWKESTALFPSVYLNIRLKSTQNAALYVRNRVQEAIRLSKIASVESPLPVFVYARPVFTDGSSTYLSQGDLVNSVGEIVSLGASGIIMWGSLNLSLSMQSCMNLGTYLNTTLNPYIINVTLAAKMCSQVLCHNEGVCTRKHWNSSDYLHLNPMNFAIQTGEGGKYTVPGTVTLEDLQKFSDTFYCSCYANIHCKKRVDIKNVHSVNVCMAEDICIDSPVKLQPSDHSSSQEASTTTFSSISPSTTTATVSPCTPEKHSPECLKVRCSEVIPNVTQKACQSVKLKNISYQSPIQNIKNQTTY
Examples of molecules with documented Hyaluronidase activity Mean(%) follow.

Answered cases to consult:
molecule	Hyaluronidase activity Mean(%)
O=C1OC[C@H]2OC(=O)c3cc(O)c(O)c(O)c3-c3c(O)c(O)c(O)c4c3C(=O)O[C@H]([C@H]3OC(=O)c5c-4c(O)c(O)c(O)c5[C@H]3O)[C@@H]2OC(=O)c2cc(O)c(O)c(O)c2-c2c1cc(O)c(O)c2O [C, castalagin]	73,08%
O=C(OC1COC(=O)c2cc(O)c(O)c(O)c2-c2c(cc(O)c(O)c2O)C(=O)OC1C1OC(=O)c2cc(O)c(O)c(O)c2-c2c(O)c(O)c(O)c3c2C(=O)OC1C3O)c1cc(O)c(O)c(O)c1Oc1cc2c(c(O)c1O)-c1c(cc(O)c(O)c1O)C(=O)OCC1OC(=O)c3cc(O)c(O)c(O)c3-c3c(O)c(O)c(O)c4c3C(=O)OC(C1OC2=O)C1OC(=O)c2c-4c(O)c(O)c(O)c2C1O (centres unmarked) [SC, salicarinin C]	57,68%
O=C(OC1COC(=O)c2cc(O)c(O)c(O)c2-c2c(cc(O)c(O)c2O)C(=O)OC1C1OC(=O)c2cc(O)c(O)c(O)c2-c2c(O)c(O)c(O)c3c2C(=O)OC1C3O)c1cc(O)c(O)c(O)c1Oc1cc2c(c(O)c1O)-c1c(cc(O)c(O)c1O)C(=O)OCC1OC(=O)c3cc(O)c(O)c(O)c3-c3c(O)c(O)c(O)c4c3C(=O)OC(C1OC2=O)C1OC(=O)c2c-4c(O)c(O)c(O)c2C1O (centres unmarked) [SA, salicarinin A]	35,96%
O=C(OC1COC(=O)c2cc(O)c(O)c(O)c2-c2c(cc(O)c(O)c2O)C(=O)OC1C1OC(=O)c2cc(O)c(O)c(O)c2-c2c(O)c(O)c(O)c3c2C(=O)OC1C3O)c1cc(O)c(O)c(O)c1Oc1cc2c(c(O)c1O)-c1c(cc(O)c(O)c1O)C(=O)OCC1OC(=O)c3cc(O)c(O)c(O)c3-c3c(O)c(O)c(O)c4c3C(=O)OC(C1OC2=O)C1OC(=O)c2c-4c(O)c(O)c(O)c2C1O (centres unmarked) [SB, salicarinin B]	34,62%

Lab note: measured Hyaluronidase activity Mean(%) of O=C1OCC2OC(=O)c3cc(O)c(O)c(O)c3-c3c(O)c(O)c(O)c4c3C(=O)OC(C2OC(=O)c2cc(O)c(O)c(O)c2-c2c1cc(O)c(O)c2O)C1OC(=O)c2c-4c(O)c(O)c(O)c2C1O (centres unmarked) [V, vescalagin] was 68,10%

---

tested on: ROS; test: ROS release from PMA-stimulated neutrophils, lucigenin chemiluminescence; type: cell-based, human; settings: PMA + lucygenin; 5 μM; % of stimulated control
Examples of compounds with documented ROS release Mean(%) follow.

Answered cases to consult:
compound	ROS release Mean(%)
O=C(OC1COC(=O)c2cc(O)c(O)c(O)c2-c2c(cc(O)c(O)c2O)C(=O)OC1C1OC(=O)c2cc(O)c(O)c(O)c2-c2c(O)c(O)c(O)c3c2C(=O)OC1C3O)c1cc(O)c(O)c(O)c1Oc1cc2c(c(O)c1O)-c1c(cc(O)c(O)c1O)C(=O)OCC1OC(=O)c3cc(O)c(O)c(O)c3-c3c(O)c(O)c(O)c4c3C(=O)OC(C1OC2=O)C1OC(=O)c2c-4c(O)c(O)c(O)c2C1O (stereo not drawn) [SB, salicarinin B]	36,09%
O=C1O[C@H]([C@@H](O)CO)C(O)=C1O [VitC, ascorbic acid, reference compound]	94,53%
O=C(OC1COC(=O)c2cc(O)c(O)c(O)c2-c2c(cc(O)c(O)c2O)C(=O)OC1C1OC(=O)c2cc(O)c(O)c(O)c2-c2c(O)c(O)c(O)c3c2C(=O)OC1C3O)c1cc(O)c(O)c(O)c1Oc1cc2c(c(O)c1O)-c1c(cc(O)c(O)c1O)C(=O)OCC1OC(=O)c3cc(O)c(O)c(O)c3-c3c(O)c(O)c(O)c4c3C(=O)OC(C1OC2=O)C1OC(=O)c2c-4c(O)c(O)c(O)c2C1O (stereo not drawn) [SA, salicarinin A]	44,80%
O=C1OCC2OC(=O)c3cc(O)c(O)c(O)c3-c3c(O)c(O)c(O)c4c3C(=O)OC(C2OC(=O)c2cc(O)c(O)c(O)c2-c2c1cc(O)c(O)c2O)C1OC(=O)c2c-4c(O)c(O)c(O)c2C1O (stereo not drawn) [V, vescalagin]	50,90%
O=C1OC[C@H]2OC(=O)c3cc(O)c(O)c(O)c3-c3c(O)c(O)c(O)c4c3C(=O)O[C@H]([C@H]3OC(=O)c5c-4c(O)c(O)c(O)c5[C@H]3O)[C@@H]2OC(=O)c2cc(O)c(O)c(O)c2-c2c1cc(O)c(O)c2O [C, castalagin]	60,48%

Now look at this one.
Lab note: measured ROS release Mean(%) of O=C(OC1COC(=O)c2cc(O)c(O)c(O)c2-c2c(cc(O)c(O)c2O)C(=O)OC1C1OC(=O)c2cc(O)c(O)c(O)c2-c2c(O)c(O)c(O)c3c2C(=O)OC1C3O)c1cc(O)c(O)c(O)c1Oc1cc2c(c(O)c1O)-c1c(cc(O)c(O)c1O)C(=O)OCC1OC(=O)c3cc(O)c(O)c(O)c3-c3c(O)c(O)c(O)c4c3C(=O)OC(C1OC2=O)C1OC(=O)c2c-4c(O)c(O)c(O)c2C1O (stereo not drawn) [SC, salicarinin C] was 34,56%

---

tested on: IL-8; assay: IL-8 production by LPS-stimulated neutrophils (ELISA); type: cell-based, human; settings: 1 μM; LPS 100 ng/mL, 24 h; % of stimulated control
assayReadout: IL-8 production Mean (%)

Answered cases to consult:
compound	IL-8 production Mean (%)
O=C(OC1COC(=O)c2cc(O)c(O)c(O)c2-c2c(cc(O)c(O)c2O)C(=O)OC1C1OC(=O)c2cc(O)c(O)c(O)c2-c2c(O)c(O)c(O)c3c2C(=O)OC1C3O)c1cc(O)c(O)c(O)c1Oc1cc2c(c(O)c1O)-c1c(cc(O)c(O)c1O)C(=O)OCC1OC(=O)c3cc(O)c(O)c(O)c3-c3c(O)c(O)c(O)c4c3C(=O)OC(C1OC2=O)C1OC(=O)c2c-4c(O)c(O)c(O)c2C1O (stereo not drawn) [SC, salicarinin C]	77,70%
COc1cc(/C=C/C(=O)CC(=O)/C=C/c2ccc(O)c(OC)c2)ccc1O [Cur, curcumin, reference compound]	112,66%
O=C1OCC2OC(=O)c3cc(O)c(O)c(O)c3-c3c(O)c(O)c(O)c4c3C(=O)OC(C2OC(=O)c2cc(O)c(O)c(O)c2-c2c1cc(O)c(O)c2O)C1OC(=O)c2c-4c(O)c(O)c(O)c2C1O (stereo not drawn)	98,64%
O=C(OC1COC(=O)c2cc(O)c(O)c(O)c2-c2c(cc(O)c(O)c2O)C(=O)OC1C1OC(=O)c2cc(O)c(O)c(O)c2-c2c(O)c(O)c(O)c3c2C(=O)OC1C3O)c1cc(O)c(O)c(O)c1Oc1cc2c(c(O)c1O)-c1c(cc(O)c(O)c1O)C(=O)OCC1OC(=O)c3cc(O)c(O)c(O)c3-c3c(O)c(O)c(O)c4c3C(=O)OC(C1OC2=O)C1OC(=O)c2c-4c(O)c(O)c(O)c2C1O (stereo not drawn) [SA, salicarinin A]	89,82%
O=C(OC1COC(=O)c2cc(O)c(O)c(O)c2-c2c(cc(O)c(O)c2O)C(=O)OC1C1OC(=O)c2cc(O)c(O)c(O)c2-c2c(O)c(O)c(O)c3c2C(=O)OC1C3O)c1cc(O)c(O)c(O)c1Oc1cc2c(c(O)c1O)-c1c(cc(O)c(O)c1O)C(=O)OCC1OC(=O)c3cc(O)c(O)c(O)c3-c3c(O)c(O)c(O)c4c3C(=O)OC(C1OC2=O)C1OC(=O)c2c-4c(O)c(O)c(O)c2C1O (stereo not drawn) [SB, salicarinin B]	107,98%

The value of IL-8 production Mean (%) recorded for O=C1OC[C@H]2OC(=O)c3cc(O)c(O)c(O)c3-c3c(O)c(O)c(O)c4c3C(=O)O[C@H]([C@H]3OC(=O)c5c-4c(O)c(O)c(O)c5[C@H]3O)[C@@H]2OC(=O)c2cc(O)c(O)c(O)c2-c2c1cc(O)c(O)c2O when tested on IL-8 reads 92,43%
